- Tested on: Escherichia coli TOP10;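 note: peptides expressed intracellularly from a pBAD plasmid library in pooled LB shake-flask culture, induced with 0.3% L-arabinose, DNA abundance read by NGS, three biological replicates, DESeq2 with apeglm shrinkage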
- Method description: shrunken log2 fold change of peptide-encoding DNA abundance (4.5 h post-induction vs induction); higher = less antimicrobial activity (less host growth inhibition)
- Protocol conditions: time post-induction: 4.5 h; library: site-saturation at positions 5, 18, 19, 20
Metric: shrunken log2 fold change
The answer should be written as a number, with no unit following it.

sequence RRIRNRPPRLPRPRPRPPIQPRP , shrunken log2 fold change observed: 0.0569

sequence RRIRLRPPRLPRPRPRPNENPRP , shrunken log2 fold change observed: -0.189

sequence RRIRERPPRLPRPRPRPTWPPRP , shrunken log2 fold change observed: 0.219

sequence RRIRKRPPRLPRPRPRPPIEPRP , shrunken log2 fold change observed: 0.223

sequence RRIRIRPPRLPRPRPRPSGYPRP , shrunken log2 fold change observed: 0.00435

sequence RRIRQRPPRLPRPRPRPVSEPRP , shrunken log2 fold change observed: -0.202

sequence RRIRARPPRLPRPRPRPVNPPRP , shrunken log2 fold change observed: -0.00864

sequence RRIRLRPPRLPRPRPRPCPTPRP , shrunken log2 fold change observed: 0.0726

sequence RRIRDRPPRLPRPRPRPLNYPRP , shrunken log2 fold change observed: -0.372

sequence RRIRSRPPRLPRPRPRPESLPRP , shrunken log2 fold change observed: 0.0154

sequence RRIRERPPRLPRPRPRPHYHPRP , shrunken log2 fold change observed: -0.356

sequence RRIRVRPPRLPRPRPRPLHEPRP , shrunken log2 fold change observed: -0.0936

sequence RRIRPRPPRLPRPRPRPGTTPRP , shrunken log2 fold change observed: 0.195

sequence RRIRQRPPRLPRPRPRPDYTPRP , shrunken log2 fold change observed: -0.0424

sequence RRIRYRPPRLPRPRPRPAVQPRP , shrunken log2 fold change observed: -0.505
